Quick reference: EC50 of the listed items.
- EXPERIMENTAL_SYSTEM: human APJ receptor (Homo sapiens)
- Construct: expressed in transfected cells
- Sequence (P35414 1-380): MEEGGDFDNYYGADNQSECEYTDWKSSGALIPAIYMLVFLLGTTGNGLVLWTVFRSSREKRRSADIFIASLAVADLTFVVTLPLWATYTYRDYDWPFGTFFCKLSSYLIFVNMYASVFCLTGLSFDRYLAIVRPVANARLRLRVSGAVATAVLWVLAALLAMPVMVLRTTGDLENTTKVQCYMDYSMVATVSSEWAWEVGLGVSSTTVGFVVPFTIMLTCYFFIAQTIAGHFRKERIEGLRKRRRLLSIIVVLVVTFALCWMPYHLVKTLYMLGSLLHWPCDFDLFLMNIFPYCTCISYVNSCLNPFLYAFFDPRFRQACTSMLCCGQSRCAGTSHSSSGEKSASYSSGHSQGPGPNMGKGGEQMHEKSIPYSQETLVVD
- EXPERIMENT: Intracellular cAMP accumulation assay (APJ hcAMP, HTRF)
- Type: cell-based
- CONDITION_INFO: Table 1; HEK293 cells stably expressing human APJ receptor; inhibition of forskolin-mediated cAMP production; read-out: APJ hcAMP EC50
MEASUREMENT_NAME: EC50

1) CCC[C@@H](NC(=O)c1ccc(-c2cc(Cl)ccc2-c2nc3nc(C)ccc3[nH]2)c(C(=O)O)c1)c1ccccc1 [Example 30]    10 to 100 nM
2) CCC[C@@H](NC(=O)c1ccc(-c2cc(Cl)ccc2-c2nc3ccccc3[nH]2)c(C(=O)NS(C)(=O)=O)c1)c1ccccc1 [Example 44]    10 to 100 nM
3) CCC(NC(=O)c1ccc(-c2cc(Cl)ccc2-c2nc3ccccc3[nH]2)c(C(=O)O)c1)c1ccccn1 (racemic) [Example 213]    10 to 100 nM

* * *

Quick reference: pEC50 of the listed items.
- EXPERIMENTAL_SYSTEM: human APJ receptor (Homo sapiens)
- Construct: expressed in transfected cells
- Sequence (P35414 1-380): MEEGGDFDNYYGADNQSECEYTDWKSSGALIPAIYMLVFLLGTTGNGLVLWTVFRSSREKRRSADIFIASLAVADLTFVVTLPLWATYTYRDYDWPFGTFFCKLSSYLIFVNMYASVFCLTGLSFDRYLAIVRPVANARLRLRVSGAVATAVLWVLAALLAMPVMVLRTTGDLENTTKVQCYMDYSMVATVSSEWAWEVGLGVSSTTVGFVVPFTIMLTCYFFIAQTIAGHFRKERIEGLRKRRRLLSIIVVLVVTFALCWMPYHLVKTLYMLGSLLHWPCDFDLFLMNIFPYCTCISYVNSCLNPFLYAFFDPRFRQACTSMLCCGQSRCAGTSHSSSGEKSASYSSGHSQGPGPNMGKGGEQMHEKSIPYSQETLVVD
- EXPERIMENT: Intracellular cAMP accumulation assay (APJ hcAMP, HTRF)
- Assay type: cell-based
- CONDITION_INFO: Table 1; HEK293 cells stably expressing human APJ receptor; inhibition of forskolin-mediated cAMP production; read-out: APJ hcAMP EC50
pEC50: −log10 of the molar value.
MEASUREMENT_NAME: pEC50

1. CCC[C@@H](NC(=O)c1ccc(-c2cc(Cl)ccc2-c2nc3ccccc3[nH]2)c(C(=O)O)c1)c1ccccc1 [Example 2]    > 8.00
2. CCC[C@@H](NC(=O)c1ccc(-c2cc(C(F)(F)F)ccc2-c2nc3cc(OC)ccc3[nH]2)c(C(=O)O)c1)c1ccccc1 [Example 56]    > 8.00
3. CCC[C@@H](NC(=O)c1ccc(-c2cc(Cl)ccc2-c2nc3cc(OC)ccc3[nH]2)c(C(=O)O)c1)c1ccccc1 [Example 1]    > 8.00
4. CCC[C@@H](NC(=O)c1ccc(-c2c(Cl)cccc2-c2nc3cc(F)c(F)cc3[nH]2)c(C(=O)O)c1)c1ccccc1 (atropisomer, axis not shown) [Example 89]    > 8.00
5. CCC[C@@H](NC(=O)c1ccc(-c2cc(Cl)ccc2-c2nc3cc(Br)ccc3[nH]2)c(C(=O)O)c1)c1ccccc1 [Example 13]    > 8.00
6. COc1cc2[nH]c(-c3cccc(Cl)c3-c3ccc(C(=O)N4CCC(c5ccccc5)CC4)cc3C(=O)O)nc2cc1F [Example 110]    > 8.00
7. COc1cc2[nH]c(-c3cccc(Cl)c3-c3ccc(C(=O)NCC(c4ccccc4)c4ccccc4)cc3C(=O)O)nc2cc1F [Example 117]    7.00 to 8.00
8. CCC[C@@H](NC(=O)c1ccc(-c2c(Cl)cccc2-c2ncc(-c3cccc(OC)c3)[nH]2)c(C(=O)O)c1)c1ccccc1 (atropisomer, axis not shown) [Example 103]    > 8.00
9. CCC[C@@H](NC(=O)c1ccc(-c2c(C)cccc2-c2nc3cc(C(C)(C)C)ccc3[nH]2)c(C(=O)O)c1)c1ccccc1 [Example 144]    > 8.00
10. CCCC(NC(=O)c1ccc(-c2c(Cl)cccc2-c2nc3ccccc3[nH]2)c(C(=O)O)c1)c1cccc(Cl)c1 (stereo not shown) [Example 167]    > 8.00
11. O=C(NC(CCC(F)(F)F)c1ccccc1)c1ccc(-c2cc(Cl)ccc2-c2nc3ccccc3[nH]2)c(C(=O)O)c1 (racemic) [Example 158]    7.00 to 8.00
12. C[C@@H](NC(=O)c1ccc(-c2cc(Cl)ccc2-c2nc3ccccc3[nH]2)c(C(=O)O)c1)c1ccccc1 [Example 76]    7.00 to 8.00
13. CCC[C@@H](NC(=O)c1ccc(-c2cc(Cl)ccc2-c2nc3ccccc3[nH]2)c(CO)c1)c1ccccc1 [Example 7]    7.00 to 8.00

* * *

Quick reference: pEC50 of the listed items.
- EXPERIMENTAL_SYSTEM: human APJ receptor (Homo sapiens)
- Construct: expressed in transfected cells
- EXPERIMENT: Intracellular cAMP accumulation assay (APJ hcAMP, HTRF)
- Format: cell-based
- CONDITION_INFO: human APJ, cAMP; potency range class; read-out: APJ cAMP Human EC50
pEC50: −log10 of the molar value.
MEASUREMENT_NAME: pEC50

1) CCC[C@H](NC(=O)c1ccc(-c2c(Cl)cccc2-c2nc3ccccc3[nH]2)c(C(=O)O)c1)c1ccc(Cl)cc1    > 8.00
2) CCCC(NC(=O)c1ccc(-c2c(Cl)cccc2-c2nc3ccccc3[nH]2)c(C(=O)O)c1)c1ccc(F)cc1 (single isomer, unassigned)    > 8.00
3) CCC[C@H](NC(=O)c1ccc(-c2c(Cl)cccc2-c2nc3ccccc3[nH]2)c(C(=O)O)c1)c1ccccc1OC(F)(F)F (single isomer, unassigned)    > 8.00
4) CCCC(NC(=O)c1ccc(-c2c(Cl)cccc2-c2nc3ccccc3[nH]2)c(C(=O)O)c1)c1cccc(F)c1 (single isomer, unassigned)    > 8.00
5) CCCC(NC(=O)c1ccc(-c2c(Cl)cccc2-c2nc3ccccc3[nH]2)c(C(=O)O)c1)c1ccccn1 (centres unmarked) [Example 180]    > 8.00
6) CCCC(NC(=O)c1ccc(-c2cc(Cl)ccc2-c2nc3cc(OC)ccc3[nH]2)c(C(=O)O)c1)c1ccccc1OC (centres unmarked)    > 8.00
7) CCC[C@@H](NC(=O)c1ccc(-c2c(Cl)cccc2-c2nc3cc(F)c(F)cc3[nH]2)c(C(=O)O)c1)C1CCCCC1 (atropisomer, axis not shown)    > 8.00
8) O=C(N[C@@H](CCC(F)(F)F)c1ccccc1)c1ccc(-c2c(Cl)cccc2-c2nc3ccccc3[nH]2)c(C(=O)O)c1    > 8.00
9) O=C(N[C@H](c1ccc(F)cc1)C1CC1)c1ccc(-c2c(Cl)cccc2-c2nc3ccccc3[nH]2)c(C(=O)O)c1    > 8.00
10) CCCC(NC(=O)c1ccc(-c2c(Cl)cccc2-c2nc3ccccc3[nH]2)c(C(=O)O)c1)c1c(F)cccc1OC (single isomer, unassigned)    > 8.00
11) CCC[C@@H](NC(=O)c1ccc(-c2c(Cl)cccc2-c2nc3cc(OC)ccc3[nH]2)c(C(=O)O)c1)C1CCCCC1 (single isomer, unassigned)    > 8.00
12) COc1cc2nc(-c3cccc(Cl)c3-c3ccc(C(=O)NC(C4CCCCC4)C4CC4)cc3C(=O)O)[nH]c2cc1F (single isomer, unassigned)    > 8.00
13) CCC[C@H](NC(=O)c1ccc(-c2c(Cl)cccc2-c2nc3ccccc3[nH]2)c(C(=O)O)c1)c1cccc(Cl)c1 (single isomer, unassigned)    > 8.00
14) CCC[C@H](NC(=O)c1ccc(-c2c(Cl)cccc2-c2nc3ccccc3[nH]2)c(C(=O)O)c1)c1ccccc1OC (single isomer, unassigned)    > 8.00
15) CCC[C@H](NC(=O)c1ccc(-c2c(Cl)cccc2-c2nc3ccccc3[nH]2)c(C(=O)O)c1)c1ccc(Cl)cc1C(F)(F)F    > 8.00
16) CCCC(NC(=O)c1ccc(-c2cc(Cl)ccc2-c2nc3ccccc3[nH]2)c(C(=O)O)c1)c1ccc(F)cc1 (single isomer, unassigned) [Example 215]    6.30 to 7.00
17) COc1cc2nc(-c3cccc(Cl)c3-c3ccc(C(=O)NC(c4ccc(Cl)cc4)C4CC4)cc3C(=O)NS(C)(=O)=O)[nH]c2cc1F (centres unmarked)    7.00 to 8.00
18) CCC(NC(=O)c1ccc(-c2cc(Cl)ccc2-c2nc3ccccc3[nH]2)c(C(=O)O)c1)c1ccccn1 (racemic)    7.00 to 8.00
19) CCCC(NC(=O)c1ccc(-c2cc(Cl)ccc2-c2nc3cc(C(C)(C)C)ccc3[nH]2)c(C(=O)O)c1)c1ccccc1OC (centres unmarked)    > 8.00
20) CCC[C@H](NC(=O)c1ccc(-c2c(Cl)cccc2-c2nc3ccccc3[nH]2)c(C(=O)O)c1)C1CCCCC1 (single isomer, unassigned)    > 8.00
21) CCC[C@H](NC(=O)c1ccc(-c2c(Cl)cccc2-c2nc3cc(Cl)c(F)cc3[nH]2)c(C(=O)O)c1)c1ccncc1 (single isomer, unassigned)    > 8.00
22) CCC[C@H](NC(=O)c1ccc(-c2c(Cl)cccc2-c2nc3cc(OC)c(F)cc3[nH]2)c(C(=O)O)c1)c1ccc(Cl)cc1 (single isomer, unassigned)    > 8.00
23) O=C(NC(CCC(F)(F)F)c1ccccc1)c1ccc(-c2cc(Cl)ccc2-c2nc3ccccc3[nH]2)c(C(=O)O)c1 (racemic)    7.00 to 8.00

Source listed as patent US11498903B2.
